assay: qHTS to identify inhibitors of the type 1 interferon - major histocompatibility complex class I in skeletal muscle: primary screen against the NCATS Mechanism Interrogation Plate v5.0 (MIPE) Libary (AID 1347411); details: iHSKM cells + IFN-b, HiBiT-tagged MHC-I luminescence, 24 h; series mostly up to 45.8 µM; also: nearly all actives have a fitted effect of over 65% in size
Records with an inconclusive call do not appear. Activity calls are given as the source filed them. Calls follow the shape of the dose curve; as a rule, active = well fitted inhibition curve with a large enough effect; inconclusive = small, poorly fitted or top-dose-only effect; inactive = no such curve, though single readings can be large or run the other way.
Possible outcomes: 1.0 for active, 0.0 for inactive

{"smiles.representation": "O=C(NCc1ccc(S(=O)(=O)c2cccc(C(F)(F)F)c2)cc1)c1cnc2[nH]ncc2c1", "answer.label": 0.0}
{"smiles.representation": "CCCN(CCC)C(=O)C1=Cc2ccc(-c3ccc(C(=O)N4CCCC4)cc3)cc2N=C(N)C1", "answer.label": 0.0}
{"smiles.representation": "COC(=O)C1=C(C)NC(c2ncc(F)cc2F)=N[C@@H]1c1ccc(F)cc1Cl", "answer.label": 1.0}
{"smiles.representation": "CC1(C)CCC2(CC1)N[C@@H](C(=O)N[C@@H]1CC[C@@H](C(N)=O)OC1)[C@H](c1ccnc(Cl)c1F)[C@]21C(=O)Nc2cc(Cl)ccc21", "answer.label": 1.0}

====

test: NFAT Signaling Pathway (AID 444); conditions: Jurkat NFAT-bla M1, carbachol, beta-lactamase ratio, 5 h; at 7.69 µM (top of the series) unless noted;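 also: carbachol stimulus at about its EC50 of 1 µM final; % is scaled to controls: 0 for no effect and ±100 for the full control effect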
Inconclusive results are not listed.
Items are presented alongside their recorded activity change, negative = inhibition.
outcome.measure: activity change, negative = inhibition (%)

{"smiles.representation": "FC(F)(F)c1ccccc1-c1nc(NCc2cccs2)c2ccccc2n1", "observed": -18.2}
{"smiles.representation": "COc1cccc(-c2cncnc2NCc2ccccc2)c1", "observed": 1.11}
{"smiles.representation": "Cn1cc(-c2nc3cnc(Oc4cccc(Cl)c4)nc3n(CCC#N)c2=O)c2ccccc21", "observed": 21.5}
{"smiles.representation": "O=C(c1csnn1)N1CCC2(CCCN(c3ccccc3)C2)CC1", "observed": 1.2}
{"smiles.representation": "COc1ccc(NC(=O)N2CC3(CCN(C(=O)c4ccc(OC)cc4)CC3)C2)cc1", "observed": 16.6}
{"smiles.representation": "Cc1ccccc1-c1nccc(NCc2cccs2)n1", "observed": 1.22}
{"smiles.representation": "O=C(c1cc(C(F)(F)F)cc(C(F)(F)F)c1)N1CCC[C@@]2(CCN(Cc3nccs3)C2)C1", "observed": -21.5}
{"smiles.representation": "O=c1cnc2cnc(Nc3ccccc3)nc2n1Cc1ccc(F)cc1", "observed": 3.72}
{"smiles.representation": "COCCn1c(=O)c(C)nc2cnc(N(C)C)nc21", "observed": 13.3}
{"smiles.representation": "O=c1c(-c2ccc(Cl)cc2)nc2cnc(N3CCOCC3)nc2n1C[C@H]1CCCO1", "observed": -5.22}
{"smiles.representation": "FC(F)(F)c1ccccc1-c1nccc(NCc2cccs2)n1", "observed": -3.1}

====

test: qHTS profiling for inhibitors of Plasmodium falciparum (HB3) proliferation (AID 743324); settings: Plasmodium falciparum HB3 blood-stage proliferation; at 28.7 µM (top of the series);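 also: 100% = DMSO vehicle wells and 0% = artemisinin-treated control wells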
Items are presented alongside their recorded remaining proliferation (% of control), lower = more inhibition.
outcome.measure: remaining proliferation (% of control), lower = more inhibition (%)

{"compound": "N[C@@H](Cc1ccc(O[S+](=O)([O-])c2cccc3cnccc23)cc1)C(=O)N1CCN(c2ccccc2)CC1", "observed": 1.2}
{"compound": "CNC1CCC(N(Cc2ccc(OC)c(-c3ccc(C#N)cc3)c2)C(=O)c2sc3ccccc3c2Cl)CC1 (stereo unspecified)", "observed": -1.57}
{"compound": "COC(=O)[C@H](Cc1ccc(O[S+](=O)([O-])c2cccc3cnccc23)cc1)N(C)[S+](=O)([O-])c1ccc2cnccc2c1", "observed": 0.837}
{"compound": "Cc1noc(C)c1C(=O)N1CCC2(CCCN(C(c3ccccc3)c3ccccc3)C2)CC1", "observed": 10.2}
{"compound": "O=C(NCCN1CCCC1)[C@H](Cc1ccc(OS(=O)(=O)c2cccc3cnccc23)cc1)NS(=O)(=O)c1cccc2cnccc12", "observed": 1.37}
{"compound": "O=C([C@@H](Cc1ccc(O[S+](=O)([O-])c2cccnc2)cc1)N[S+](=O)([O-])c1cccc2cccnc12)N1CCN(c2ccccc2)CC1", "observed": 0.336}
{"compound": "N[C@@H](Cc1ccc(O[S+](=O)([O-])c2cccc3cccnc23)cc1)C(=O)N1CCN(c2ccccc2)CC1", "observed": 0.538}
{"compound": "CN1CCN(C(=O)[C@H](Cc2ccc(O[S+](=O)([O-])c3cccc4cnccc34)cc2)N[S+](=O)([O-])c2cccc3cnccc23)CC1", "observed": 5.8}
{"compound": "CC(C)(C)c1cc(O)c(CN)c(C(C)(C)C)c1", "observed": -0.148}
{"compound": "O=C([C@H](Cc1ccc(O[S+](=O)([O-])c2cccc3cccnc23)cc1)N[S+](=O)([O-])c1cccnc1)N1CCN(c2ccccc2)CC1", "observed": -0.167}
{"compound": "N[C@@H](Cc1ccc(OS(=O)(=O)c2cccnc2)cc1)C(=O)N1CCN(c2ccccc2)CC1", "observed": 27.8}

Hey, just so you know, these numbers are from PubChem BioAssay (NCATS).
